Each entry below carries its reported viability, T/C.
System: K24384-001-R-PDC complex spheroids, viability
Test: Anticancer human tumor K24384-001-R-PDC patient-derived pancreatic adenocarcinoma cell line growth inhibition [GQUAD]
Details: second compound 3.16 µM; first compound 0.0316 µM; active compounds read low
Source text: DNA G-quadruplex Stabilizer Agents in Combinations in Complex Spheroids A high-throughput screen of multi-cell type tumor spheroids was designed to identify active combinations of DNA G-quadruplex stabilizer agents and targeted small molecules. […] Compounds. […] If the clinical Cmax for an agent had not been determined, the highest concentration tested was 10 microM. […]
Please give a number only; it is taken to be in %.

Please review the entries below; each comes with its answer.
Nc1ccn(C2OC(CO)C(O)C2(F)F)c(=O)n1 (centres undefined) + Cc1cnc(CNC(=O)c2c(=O)c3ccc(N4CCCN(C)CC4)nc3n3c2sc2ccccc23)cn1 ... 41.3
C=CC(=O)N1CCN(c2nc(=O)n(-c3c(C)ccnc3C(C)C)c3nc(-c4c(O)cccc4F)c(F)cc23)C(C)C1 (centres undefined) + Cc1[nH]c2ccc(F)cc2c1-c1nc2c3cccnc3c3ncccc3c2[nH]1 ... 71.7
CC1COCCN1c1cc(-c2ccnn2C)c2ccnc(-c3ccn[nH]3)c2n1 (centres undefined) + Cc1[nH]c2ccc(F)cc2c1-c1nc2c3cccnc3c3ncccc3c2[nH]1 ... 55.5
O=C(c1cc(Cc2n[nH]c(=O)c3ccccc23)ccc1F)N1CCN(C(=O)C2CC2)CC1 + CN(C)c1ccc(Nc2c3ccc(NC(=O)CCN4CCCC4)cc3nc3cc(NC(=O)CCN4CCCC4)ccc23)cc1 ... 89.5
C#Cc1c(F)ccc2cc(O)cc(-c3ncc4c(N5CC6CCC(C5)N6)nc(OCC56CCCN5CC(F)C6)nc4c3F)c12 (centres undefined) + Cc1[nH]c2ccc(F)cc2c1-c1nc2c3cccnc3c3ncccc3c2[nH]1 ... 75.6
COc1ccc([C@@H](O)c2cc(-c3ncnc4cc(N5CCOCC5)ccc34)c(F)cc2Cl)nn1 + CN(C)c1ccc(Nc2c3ccc(NC(=O)CCN4CCCC4)cc3nc3cc(NC(=O)CCN4CCCC4)ccc23)cc1 ... 91.9

Q: Find viability, T/C (K24384-001-R-PDC complex spheroids, viability) for the entry CC(C)(O)C1CCC(Nc2ccc3ncc(-c4cccc(C(F)(F)F)c4)n3n2)CC1 (centres undefined) + Cc1cnc(CNC(=O)c2c(=O)c3ccc(N4CCCN(C)CC4)nc3n3c2sc2ccccc23)cn1
A: 30.4

Q: Entry O=C(NO)c1cnc(N2CCN(S(=O)(=O)c3ccc4ccccc4c3)CC2)nc1 + Cc1[nH]c2ccc(F)cc2c1-c1nc2c3cccnc3c3ncccc3c2[nH]1 please
A: 75.6

Q: Entry CC1COCCN1c1cc(C2(S(C)(=N)=O)CC2)nc(-c2ccnc3[nH]ccc23)n1 (centres undefined) + CN(C)c1ccc(Nc2c3ccc(NC(=O)CCN4CCCC4)cc3nc3cc(NC(=O)CCN4CCCC4)ccc23)cc1 please
A: 90.2

###

Tested on: K24384-001-R-PDC complex spheroids, viability
Experiment: Anticancer human tumor K24384-001-R-PDC cell line growth inhibition [GQUAD];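 also: spheroids exposed to compounds for seven days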
Conditions: second compound 1 µM; first compound 0.00999 µM; active compounds read low
endpoint: viability, T/C (%)
Please give a number only; it is taken to be in %.

Please review the entries below; each comes with its answer.
Cc1[nH]c2ccccc2c1CCNCc1ccc(/C=C/C(=O)NO)cc1 + CN(C)c1ccc(Nc2c3ccc(NC(=O)CCN4CCCC4)cc3nc3cc(NC(=O)CCN4CCCC4)ccc23)cc1 ... 114
CCc1c2c(nc3ccc(O)cc13)-c1cc3c(c(=O)n1C2)COC(=O)[C@]3(O)CC + Cc1cnc(CNC(=O)c2c(=O)c3ccc(N4CCCN(C)CC4)nc3n3c2sc2ccccc23)cn1 ... 31.3
CCc1c2c(nc3ccc(O)cc13)-c1cc3c(c(=O)n1C2)COC(=O)[C@]3(O)CC + CN(C)c1ccc(Nc2c3ccc(NC(=O)CCN4CCCC4)cc3nc3cc(NC(=O)CCN4CCCC4)ccc23)cc1 ... 39.9
CC[C@@]1(O)C(=O)OCc2c1cc1n(c2=O)Cc2cc3c(CN(C)C)c(O)ccc3nc2-1 + CN(C)c1ccc(Nc2c3ccc(NC(=O)CCN4CCCC4)cc3nc3cc(NC(=O)CCN4CCCC4)ccc23)cc1 ... 96

Q: viability, T/C lookup needed for Cc1[nH]c2ccccc2c1CCNCc1ccc(/C=C/C(=O)NO)cc1 + Cc1cnc(CNC(=O)c2c(=O)c3ccc(N4CCCN(C)CC4)nc3n3c2sc2ccccc23)cn1 , thanks.
A: 37.3

Q: Entry Cc1[nH]c2ccccc2c1CCNCc1ccc(/C=C/C(=O)NO)cc1 + Cc1[nH]c2ccc(F)cc2c1-c1nc2c3cccnc3c3ncccc3c2[nH]1 please
A: 124

###

Each entry below carries its reported viability, T/C.
System: K24384-001-R-PDC complex spheroids, viability
Experiment: Anticancer human tumor K24384-001-R-PDC cell line growth inhibition [GQUAD];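 also: spheroids exposed to compounds for seven days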
Conditions: second compound 1 µM; first compound 0.1 µM; active compounds read low
Please give a number only; it is taken to be in %.

CC1COCCN1c1cc(C2(O)CC3CCC(C2)O3)c2cnn(-c3ccn[nH]3)c2n1 (stereo not drawn) + Cc1cnc(CNC(=O)c2c(=O)c3ccc(N4CCCN(C)CC4)nc3n3c2sc2ccccc23)cn1 ... 42.2
COc1cc(C2c3cc4c(cc3C(OC3OC5COC(C)OC5C(O)C3O)C3COC(=O)C23)OCO4)cc(OC)c1O (stereo not drawn) + CN(C)c1ccc(Nc2c3ccc(NC(=O)CCN4CCCC4)cc3nc3cc(NC(=O)CCN4CCCC4)ccc23)cc1 ... 95.3

As a next step, examine the molecule that follows.
Q: viability, T/C lookup needed for C#Cc1c(F)ccc2cc(O)cc(-c3ncc4c(N5CC6CCC(C5)N6)nc(OCC56CCCN5CC(F)C6)nc4c3F)c12 (stereo not drawn) + Cc1cnc(CNC(=O)c2c(=O)c3ccc(N4CCCN(C)CC4)nc3n3c2sc2ccccc23)cn1 , thanks.
A: 42.6

###

Tested on: K24384-001-R-PDC complex spheroids, viability
Assay: Anticancer human tumor K24384-001-R-PDC cell line growth inhibition [GQUAD];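 also: spheroids exposed to compounds for seven days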
Conditions: second compound 10 µM; first compound 1 µM; active compounds read low
endpoint: viability, T/C (%)
Please give a number only; it is taken to be in %.

CC(=O)O[C@H]1C(=O)[C@@]2(C)[C@H]([C@H](OC(=O)c3ccccc3)[C@]3(O)C[C@H](OC(=O)[C@H](O)[C@@H](NC(=O)c4ccccc4)c4ccccc4)C(C)=C1C3(C)C)[C@]1(OC(C)=O)CO[C@@H]1C[C@@H]2O + Cc1[nH]c2ccc(F)cc2c1-c1nc2c3cccnc3c3ncccc3c2[nH]1 ... 15.4
CC(C)(O)C1CCC(Nc2ccc3ncc(-c4cccc(C(F)(F)F)c4)n3n2)CC1 (centres undefined) + CN(C)c1ccc(Nc2c3ccc(NC(=O)CCN4CCCC4)cc3nc3cc(NC(=O)CCN4CCCC4)ccc23)cc1 ... 61.5
CC(=O)O[C@H]1C(=O)[C@@]2(C)[C@H]([C@H](OC(=O)c3ccccc3)[C@]3(O)C[C@H](OC(=O)[C@H](O)[C@@H](NC(=O)c4ccccc4)c4ccccc4)C(C)=C1C3(C)C)[C@]1(OC(C)=O)CO[C@@H]1C[C@@H]2O + CN(C)c1ccc(Nc2c3ccc(NC(=O)CCN4CCCC4)cc3nc3cc(NC(=O)CCN4CCCC4)ccc23)cc1 ... 24.5

Q: Find viability, T/C (K24384-001-R-PDC complex spheroids, viability) for the entry COc1cc(C2c3cc4c(cc3C(OC3OC5COC(C)OC5C(O)C3O)C3COC(=O)C23)OCO4)cc(OC)c1O (centres undefined) + Cc1cnc(CNC(=O)c2c(=O)c3ccc(N4CCCN(C)CC4)nc3n3c2sc2ccccc23)cn1
A: 33

###

Test system: K24384-001-R-PDC complex spheroids, viability
Experiment: Anticancer human tumor K24384-001-R-PDC cell line growth inhibition [GQUAD];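 also: spheroids exposed to compounds for seven days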
Details: second compound 3.16 µM; first compound 0.0316 µM; active compounds read low
With a cut-off of 70%, any viability, T/C strictly below it is called true (1); any viability, T/C meeting it or above is called false (0).

CC(C)(O)C1CCC(Nc2ccc3ncc(-c4cccc(C(F)(F)F)c4)n3n2)CC1 (stereo unspecified) + CN(C)c1ccc(Nc2c3ccc(NC(=O)CCN4CCCC4)cc3nc3cc(NC(=O)CCN4CCCC4)ccc23)cc1 ... false (0)
O=C(NO)c1cnc(N2CCN(S(=O)(=O)c3ccc4ccccc4c3)CC2)nc1 + CN(C)c1ccc(Nc2c3ccc(NC(=O)CCN4CCCC4)cc3nc3cc(NC(=O)CCN4CCCC4)ccc23)cc1 ... false (0)
CCc1c2c(nc3ccc(O)cc13)-c1cc3c(c(=O)n1C2)COC(=O)[C@]3(O)CC + Cc1cnc(CNC(=O)c2c(=O)c3ccc(N4CCCN(C)CC4)nc3n3c2sc2ccccc23)cn1 ... true (1)
C=CCn1c(=O)c2cnc(Nc3ccc(N4CCN(C)CC4)cc3)nc2n1-c1cccc(C(C)(C)O)n1 + Cc1[nH]c2ccc(F)cc2c1-c1nc2c3cccnc3c3ncccc3c2[nH]1 ... false (0)
Cn1ncnc1[C@H]1c2n[nH]c(=O)c3cc(F)cc(c23)N[C@@H]1c1ccc(F)cc1 + Cc1cnc(CNC(=O)c2c(=O)c3ccc(N4CCCN(C)CC4)nc3n3c2sc2ccccc23)cn1 ... true (1)

Q: Input CC[C@@]1(O)C(=O)OCc2c1cc1n(c2=O)Cc2cc3c(CN(C)C)c(O)ccc3nc2-1 + CN(C)c1ccc(Nc2c3ccc(NC(=O)CCN4CCCC4)cc3nc3cc(NC(=O)CCN4CCCC4)ccc23)cc1 ; condition: viability, T/C strictly below 70%. Does it hold?
A: false (0)

Q: Entry CC[C@@]1(O)C(=O)OCc2c1cc1n(c2=O)Cc2cc3c(CN(C)C)c(O)ccc3nc2-1 + Cc1cnc(CNC(=O)c2c(=O)c3ccc(N4CCCN(C)CC4)nc3n3c2sc2ccccc23)cn1 please
A: true (1)

Q: Entry C=CC(=O)N1CCN(c2nc(=O)n(-c3c(C)ccnc3C(C)C)c3nc(-c4c(O)cccc4F)c(F)cc23)C(C)C1 (stereo unspecified) + Cc1cnc(CNC(=O)c2c(=O)c3ccc(N4CCCN(C)CC4)nc3n3c2sc2ccccc23)cn1 please
A: true (1)

Q: Entry CC1COCCN1c1cc(C2(O)CC3CCC(C2)O3)c2cnn(-c3ccn[nH]3)c2n1 (stereo unspecified) + Cc1[nH]c2ccc(F)cc2c1-c1nc2c3cccnc3c3ncccc3c2[nH]1 please
A: true (1)

Q: Entry COc1cc(C2c3cc4c(cc3C(OC3OC5COC(C)OC5C(O)C3O)C3COC(=O)C23)OCO4)cc(OC)c1O (stereo unspecified) + Cc1cnc(CNC(=O)c2c(=O)c3ccc(N4CCCN(C)CC4)nc3n3c2sc2ccccc23)cn1 please
A: true (1)

Q: Entry CC(C)n1c(=O)n(C)c2cnc3cc(F)c(-c4ccc(OCCCN5CCCCC5)nc4)cc3c21 + Cc1[nH]c2ccc(F)cc2c1-c1nc2c3cccnc3c3ncccc3c2[nH]1 please
A: false (0)

Q: Entry CC1COCCN1c1cc(C2(O)CC3CCC(C2)O3)c2cnn(-c3ccn[nH]3)c2n1 (stereo unspecified) + CN(C)c1ccc(Nc2c3ccc(NC(=O)CCN4CCCC4)cc3nc3cc(NC(=O)CCN4CCCC4)ccc23)cc1 please
A: true (1)

Q: Entry COc1ncnc(C2CC2)c1-c1ncc2cnn(Cc3ccc(-c4nc(C(F)(F)F)cn4C(C)C)cc3)c2n1 + CN(C)c1ccc(Nc2c3ccc(NC(=O)CCN4CCCC4)cc3nc3cc(NC(=O)CCN4CCCC4)ccc23)cc1 please
A: false (0)

Q: Entry CCCS(=O)(=O)Nc1ccc(F)c(C(=O)c2c[nH]c3ncc(-c4ccc(Cl)cc4)cc23)c1F + Cc1[nH]c2ccc(F)cc2c1-c1nc2c3cccnc3c3ncccc3c2[nH]1 please
A: false (0)

Q: Entry CCCS(=O)(=O)Nc1ccc(F)c(C(=O)c2c[nH]c3ncc(-c4ccc(Cl)cc4)cc23)c1F + Cc1cnc(CNC(=O)c2c(=O)c3ccc(N4CCCN(C)CC4)nc3n3c2sc2ccccc23)cn1 please
A: true (1)

Q: Entry Cc1[nH]c2ccccc2c1CCNCc1ccc(/C=C/C(=O)NO)cc1 + Cc1[nH]c2ccc(F)cc2c1-c1nc2c3cccnc3c3ncccc3c2[nH]1 please
A: false (0)

Q: Entry CC(=O)O[C@H]1C(=O)[C@@]2(C)[C@H]([C@H](OC(=O)c3ccccc3)[C@]3(O)C[C@H](OC(=O)[C@H](O)[C@@H](NC(=O)c4ccccc4)c4ccccc4)C(C)=C1C3(C)C)[C@]1(OC(C)=O)CO[C@@H]1C[C@@H]2O + Cc1[nH]c2ccc(F)cc2c1-c1nc2c3cccnc3c3ncccc3c2[nH]1 please
A: true (1)

Q: Entry COc1ncnc(C2CC2)c1-c1ncc2cnn(Cc3ccc(-c4nc(C(F)(F)F)cn4C(C)C)cc3)c2n1 + Cc1[nH]c2ccc(F)cc2c1-c1nc2c3cccnc3c3ncccc3c2[nH]1 please
A: false (0)

Q: Entry CC1COCCN1c1cc(C2(O)CC3CCC(C2)O3)c2cnn(-c3ccn[nH]3)c2n1 (stereo unspecified) + Cc1cnc(CNC(=O)c2c(=O)c3ccc(N4CCCN(C)CC4)nc3n3c2sc2ccccc23)cn1 please
A: true (1)
